# System: A204
# METHOD_DESCRIPTION: cells
# Assay type: functional, cell-based, Homo sapiens
# PARTICULARS: Homo sapiens, A204
# Description: SANGER: Inhibition of human A204 cell growth in a cell viability assay.
METRIC_NAME: pIC50
The value called pIC50 is obtained by taking minus log10 of the concentration in mol/L.

>  <SMILES_REPRESENTATION>
Nc1ccn([C@@H]2O[C@H](CO)[C@@H](O)[C@@H]2O)c(=O)n1

>  <TARGET>
A204

>  <METRIC_NAME>
pIC50

>  <RECORDED_MEASUREMENT>
6.51

$$$$
>  <SMILES_REPRESENTATION>
Cc1ccc(Nc2nccc(N(C)c3ccc4c(C)n(C)nc4c3)n2)cc1S(N)(=O)=O

>  <TARGET>
A204

>  <METRIC_NAME>
pIC50

>  <RECORDED_MEASUREMENT>
6.96

$$$$
>  <SMILES_REPRESENTATION>
COc1ccc(C2=N[C@@H](c3ccc(Cl)cc3)[C@@H](c3ccc(Cl)cc3)N2C(=O)N2CCNC(=O)C2)c(OC(C)C)c1

>  <TARGET>
A204;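 also: growth inhibition of human A204 cells, read out with a cell viability assay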

>  <METRIC_NAME>
pIC50

>  <RECORDED_MEASUREMENT>
5.51

$$$$

Alright, here's another compound for you.
Input: Respond only with pIC50 recorded for COC(=O)CNC(=O)C(=O)OC
Output: 3.40

---

Each entry below carries its reported IC50.
# Test system: A2058;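 also: reduction of A2058 cell growth, read out with a viability assay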
# METHOD_DESCRIPTION: cells
# Format: functional, cell-based
# PARTICULARS: Homo sapiens
# Description: SANGER: Inhibition of human A2058 cell growth in a cell viability assay.

>  <COMPOUND>
O=C(c1cc(Cc2n[nH]c(=O)c3ccccc23)ccc1F)N1CCN(C(=O)C2CC2)CC1

>  <RECORDED_MEASUREMENT>
> 5 µM

$$$$
>  <COMPOUND>
COc1cc(F)c(F)c(Nc2ccc(I)cc2F)c1NS(=O)(=O)C1(CC(O)CO)CC1 (centres undefined)

>  <RECORDED_MEASUREMENT>
3.8 µM

$$$$
>  <COMPOUND>
CC(=O)O[C@@H]1[C@@H](OC(C)=O)[C@@H](O)[C@H](Oc2c(-c3ccc(O)cc3)oc3cc(O)cc(O)c3c2=O)O[C@H]1C

>  <RECORDED_MEASUREMENT>
> 10 µM

$$$$

Alright, here's another compound for you.
Input: Respond only with IC50 recorded for COc1ccc(C2=N[C@@H](c3ccc(Cl)cc3)[C@@H](c3ccc(Cl)cc3)N2C(=O)N2CCNC(=O)C2)c(OC(C)C)c1
Output: > 8 µM

---

# System: ABC-1
# METHOD_DESCRIPTION: cells
# Assay type: functional, cell-based, Homo sapiens
# PARTICULARS: Homo sapiens, ABC-1
# Description: SANGER: Inhibition of human ABC-1 cell growth in a cell viability assay.
METRIC_NAME: IC50

Answered examples (3):
>  <COMPOUND>
Cn1cncc1[C@@](N)(c1ccc(Cl)cc1)c1ccc2c(c1)c(-c1cccc(Cl)c1)cc(=O)n2C

>  <TARGET>
ABC-1

>  <IC50>
3.21 µM

$$$$
>  <COMPOUND>
COc1cc([C@@H]2c3cc4c(cc3[C@@H](O[C@@H]3O[C@@H]5CO[C@@H](C)O[C@H]5[C@H](O)[C@H]3O)[C@H]3COC(=O)[C@H]23)OCO4)cc(OC)c1O [ETOPOSIDE]

>  <TARGET>
ABC-1

>  <IC50>
0.405 µM

$$$$
>  <COMPOUND>
O=C1N=C(NCc2cccs2)S/C1=C\c1ccc2ncccc2c1

>  <TARGET>
ABC-1;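 also: growth inhibition of human ABC-1 cells, read out by a cell viability assay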

>  <IC50>
> 5 µM

$$$$

Alright, here's another compound for you.
Input: Respond only with IC50 recorded for Cn1cc(C2=C(c3ccc(Cl)cc3Cl)C(=O)NC2=O)c2ccccc21
Output: > 10 µM

---

# Test system: DEL
# METHOD_DESCRIPTION: cells
# Assay type: functional, cell-based
# PARTICULARS: Homo sapiens
# Description: SANGER: Inhibition of human DEL cell growth in a cell viability assay.
METRIC_NAME: IC50

Answered examples (3):
>  <SMILES_REPRESENTATION>
C=CCc1cccc(/C=N/NC(=O)CN2CCN(Cc3ccccc3)CC2)c1O

>  <METRIC_NAME>
IC50

>  <RECORDED_MEASUREMENT>
> 2.56 µM

$$$$
>  <SMILES_REPRESENTATION>
CC(=O)O[C@@H]1[C@@H](OC(C)=O)[C@@H](O)[C@H](Oc2c(-c3ccc(O)cc3)oc3cc(O)cc(O)c3c2=O)O[C@H]1C

>  <METRIC_NAME>
IC50

>  <RECORDED_MEASUREMENT>
> 10 µM

$$$$
>  <SMILES_REPRESENTATION>
CN(c1ncccc1CNc1nc(Nc2ccc3c(c2)CC(=O)N3)ncc1C(F)(F)F)S(C)(=O)=O

>  <METRIC_NAME>
IC50

>  <RECORDED_MEASUREMENT>
> 2.56 µM

$$$$

Input: Respond only with IC50 recorded for O=C(NOCC1CC1)c1ccc(F)c(F)c1Nc1ccc(I)cc1Cl
Output: > 10 µM

---

# System: EW-3;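 also: cell viability assay read-out, IC50 reflects inhibition of growth of the EW-3 cells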
# METHOD_DESCRIPTION: cells
# Type: functional, cell-based
# PARTICULARS: Homo sapiens
# Description: SANGER: Inhibition of human EW-3 cell growth in a cell viability assay.
METRIC_NAME: pIC50
The value called pIC50 is obtained by taking minus log10 of the concentration in mol/L.

Answered examples (3):
>  <MOLECULE>
COC(=O)CNC(=O)C(=O)OC

>  <pIC50>
2.72

$$$$
>  <MOLECULE>
Nc1ccn([C@@H]2O[C@H](CO)[C@@H](O)[C@@H]2O)c(=O)n1 [CYTARABINE]

>  <pIC50>
6.08

$$$$
>  <MOLECULE>
COc1ccc(-c2ccc3c(N4CCOC[C@@H]4C)nc(N4CCOC[C@@H]4C)nc3n2)cc1CO [AZD-8055]

>  <pIC50>
7.39

$$$$

Alright, here's another molecule for you.
Input: Respond only with pIC50 recorded for CC(=O)O[C@@]12CO[C@@H]1C[C@H](O)[C@@]1(C)C(=O)[C@H](O)C3=C(C)[C@@H](OC(=O)[C@H](O)[C@@H](NC(=O)OC(C)(C)C)c4ccccc4)C[C@@](O)([C@@H](OC(=O)c4ccccc4)[C@H]21)C3(C)C [DOCETAXEL]
Output: 9.13

---

# Tested on: CAL-12T
# METHOD_DESCRIPTION: cells
# Format: functional, cell-based, Homo sapiens
# PARTICULARS: Homo sapiens, CAL-12T
# Description: SANGER: Inhibition of human CAL-12T cell growth in a cell viability assay.
METRIC_NAME: IC50

Answered examples (2):
>  <COMPOUND>
C[C@]1(O)C[C@@H](c2nc(-c3ccc4ccc(-c5ccccc5)nc4c3)c3c(N)nccn32)C1

>  <RECORDED_MEASUREMENT>
> 2.56 µM

$$$$
>  <COMPOUND>
COc1cc([C@@H]2c3cc4c(cc3[C@@H](O[C@@H]3O[C@@H]5CO[C@@H](C)O[C@H]5[C@H](O)[C@H]3O)[C@H]3COC(=O)[C@H]23)OCO4)cc(OC)c1O [ETOPOSIDE]

>  <RECORDED_MEASUREMENT>
11.1 µM

$$$$

Alright, here's another compound for you.
Input: Respond only with IC50 recorded for Cc1cnc(-c2cnc(NCCNc3ccc(C#N)cn3)nc2-c2ccc(Cl)cc2Cl)[nH]1
Output: > 2.56 µM

---

Each entry below carries its reported IC50.
# System: SK-N-FI;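 also: cell viability assay measuring growth inhibition of human SK-N-FI cells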
# METHOD_DESCRIPTION: cells
# Format: functional, cell-based, Homo sapiens
# PARTICULARS: Homo sapiens, SK-N-FI
# Description: SANGER: Inhibition of human SK-N-FI cell growth in a cell viability assay.

Input: Respond only with IC50 recorded for Cc1cnc(-c2cnc(NCCNc3ccc(C#N)cn3)nc2-c2ccc(Cl)cc2Cl)[nH]1
Output: > 2560 nM

Input: Respond only with IC50 recorded for Nc1ccn([C@@H]2O[C@H](CO)[C@@H](O)[C@@H]2O)c(=O)n1
Output: > 2000 nM

Input: Respond only with IC50 recorded for CC1=C2C[C@H]3[C@@H](CC=C4C[C@@H](O)CC[C@@]43C)[C@@H]2CC[C@]12O[C@@H]1C[C@H](C)CN[C@H]1[C@H]2C
Output: > 16000 nM

Input: Respond only with IC50 recorded for O=C1N=C(NCc2cccs2)S/C1=C\c1ccc2ncccc2c1
Output: > 5000 nM

---

# System: GI-ME-N
# METHOD_DESCRIPTION: cells
# Assay type: functional, cell-based, Homo sapiens
# PARTICULARS: Homo sapiens, GI-ME-N
# Description: SANGER: Inhibition of human GI-ME-N cell growth in a cell viability assay.
Each entry below carries its reported IC50.

>  <COMPOUND>
O=C(/C=C/c1ccccc1)NC(NC(=S)Nc1cccc2cccnc12)C(Cl)(Cl)Cl (stereo not given) [SALUBRINAL]

>  <RECORDED_MEASUREMENT>
> 16 µM

$$$$

Input: Respond only with IC50 recorded for CC1=C2C[C@H]3[C@@H](CC=C4C[C@@H](O)CC[C@@]43C)[C@@H]2CC[C@]12O[C@@H]1C[C@H](C)CN[C@H]1[C@H]2C [CYCLOPAMINE]
Output: > 16 µM

Input: Respond only with IC50 recorded for Cn1cc(C2=C(c3ccc(Cl)cc3Cl)C(=O)NC2=O)c2ccccc21 [SB-216763]
Output: > 10 µM

Input: Respond only with IC50 recorded for O=c1cc(-c2cccc3c2Sc2ccccc2S3)oc(N2CCOCC2)c1 [KU-55933]
Output: > 10 µM

Input: Respond only with IC50 recorded for CCc1nc(N)nc(N)c1-c1ccc(Cl)cc1 [PYRIMETHAMINE]
Output: 1.4 µM

Input: Respond only with IC50 recorded for Cn1cncc1[C@@](N)(c1ccc(Cl)cc1)c1ccc2c(c1)c(-c1cccc(Cl)c1)cc(=O)n2C [TIPIFARNIB]
Output: > 16 µM

Input: Respond only with IC50 recorded for C[C@]1(O)C[C@@H](c2nc(-c3ccc4ccc(-c5ccccc5)nc4c3)c3c(N)nccn32)C1 [LINSITINIB]
Output: > 2.56 µM

Input: Respond only with IC50 recorded for Cc1cc(Nc2cc(N3CCN(C)CC3)nc(Sc3ccc(NC(=O)C4CC4)cc3)n2)n[nH]1 [TOZASERTIB]
Output: > 2 µM

Input: Respond only with IC50 recorded for COc1ccc(C2=N[C@@H](c3ccc(Cl)cc3)[C@@H](c3ccc(Cl)cc3)N2C(=O)N2CCNC(=O)C2)c(OC(C)C)c1 [NUTLIN-3]
Output: 6.22 µM

Input: Respond only with IC50 recorded for COc1ccc(-c2ccc3c(N4CCOC[C@@H]4C)nc(N4CCOC[C@@H]4C)nc3n2)cc1CO [AZD-8055]
Output: 1.03 µM
